# TARGET_OR_TEST_SYSTEM: nitrogenase MoFe-protein (Av1) (Azotobacter vinelandii, UniProt P07328)
# Construct: gene nifD; purified Av1, (αβ)2 tetramer, with Av2; with MoFe-protein β subunit (NifK); Fe-protein (Av2)
# PROCEDURE_DETAILS: inhibition of acetylene reduction, Dixon plot (gas chromatography)
# Assay type: biochemical
ENDPOINT_LABEL: Ki
Answer format: number, then unit.

Form field Ki, entry N#CS [thiocyanate] : 12.7 mM

###

# TARGET_OR_TEST_SYSTEM: nitrogenase MoFe-protein (Av1) (Azotobacter vinelandii, UniProt P07328)
# Construct: gene nifD; purified Av1, (αβ)2 tetramer, with Av2; with MoFe-protein β subunit (NifK); Fe-protein (Av2)
# PROCEDURE_DETAILS: inhibition of acetylene reduction, Dixon plot (gas chromatography); Se incorporation seen by crystallography
# Assay type: biochemical
# Excerpt: inhibition of acetylene reduction, Dixon plot (gas chromatography); Se incorporation seen by crystallography on nitrogenase MoFe-protein (Av1) | SeCN^- is a potent, yet reversible inhibitor of acetylene reduction
ENDPOINT_LABEL: Ki (µM)
Write down the numeric answer in µM and omit the unit.

Query N#C[SeH] [selenocyanate] yields Ki of 410

All values here come from paper PMC4755756.
